Molecular target: T1, M2-1 (human respiratory syncytial virus …, UniProt P04545 1-194)
T1 sequence: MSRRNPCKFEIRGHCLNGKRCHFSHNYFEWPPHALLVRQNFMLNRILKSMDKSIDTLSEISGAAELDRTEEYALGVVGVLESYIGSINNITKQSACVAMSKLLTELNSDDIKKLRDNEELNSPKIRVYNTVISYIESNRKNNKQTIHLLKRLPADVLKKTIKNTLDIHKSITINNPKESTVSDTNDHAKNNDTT
Assay: EMSA; 0.5 uM RNA; Hill 0.83; EMSA: 20 mM HEPES pH 7.5, 200 mM NaCl, 2 mM TCEP, 5% glycerol, room temperature 1 h, 4% native PAGE, SYBR Gold; SEC: Superdex 200 Increase 10/300, buffer not given
Settings: protein: recombinant; tags: N-terminal His6-GFP, cleaved with TEV; chain copies: 4
PROPERTY_LABEL: pKd
Kindly note that pKd refers to -log10 of the concentration in mol/L and answer with the value alone.

Could you share which pKd value was measured for AAAAAAAAA (ssRNA) [Poly9A] ?
5.71
